Molecular target: fusion protein PRT
Sequence (chain, as listed by the source): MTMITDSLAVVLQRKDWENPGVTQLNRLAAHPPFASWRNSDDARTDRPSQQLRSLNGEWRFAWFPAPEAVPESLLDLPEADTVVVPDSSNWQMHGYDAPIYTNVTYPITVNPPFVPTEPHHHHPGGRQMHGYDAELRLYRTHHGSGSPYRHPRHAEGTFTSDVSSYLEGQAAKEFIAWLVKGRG
metric-name: relative cleavage efficiency

OmpT protease variant OmpT D97Y (protein) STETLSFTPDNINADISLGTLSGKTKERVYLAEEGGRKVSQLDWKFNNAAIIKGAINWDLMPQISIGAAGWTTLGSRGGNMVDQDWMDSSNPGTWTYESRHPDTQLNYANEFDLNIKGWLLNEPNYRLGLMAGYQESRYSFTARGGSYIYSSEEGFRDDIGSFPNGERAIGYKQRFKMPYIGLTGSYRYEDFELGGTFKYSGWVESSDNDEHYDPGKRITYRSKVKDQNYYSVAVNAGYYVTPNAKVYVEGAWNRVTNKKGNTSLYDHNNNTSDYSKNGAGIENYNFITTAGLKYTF
less than 3.0%
OmpT protease variant OmpT D97F (protein) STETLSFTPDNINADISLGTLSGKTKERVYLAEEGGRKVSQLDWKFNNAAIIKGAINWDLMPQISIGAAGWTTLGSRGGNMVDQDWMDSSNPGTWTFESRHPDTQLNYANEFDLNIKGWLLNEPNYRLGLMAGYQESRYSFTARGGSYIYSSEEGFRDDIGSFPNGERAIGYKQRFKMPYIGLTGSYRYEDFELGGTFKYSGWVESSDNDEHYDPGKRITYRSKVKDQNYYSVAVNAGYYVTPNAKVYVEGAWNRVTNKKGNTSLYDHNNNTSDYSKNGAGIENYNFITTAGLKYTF
< 3%
OmpT protease variant OmpT D97R (protein) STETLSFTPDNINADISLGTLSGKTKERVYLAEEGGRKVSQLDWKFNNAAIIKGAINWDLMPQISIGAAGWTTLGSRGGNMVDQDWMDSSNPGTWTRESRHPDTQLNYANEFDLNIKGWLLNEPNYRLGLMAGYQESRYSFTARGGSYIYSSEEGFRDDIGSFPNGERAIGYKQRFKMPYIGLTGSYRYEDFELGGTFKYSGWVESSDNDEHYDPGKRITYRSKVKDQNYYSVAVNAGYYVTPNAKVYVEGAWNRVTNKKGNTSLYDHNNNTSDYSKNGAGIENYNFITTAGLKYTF
less than 3.0%
OmpT protease variant OmpT D97V (protein) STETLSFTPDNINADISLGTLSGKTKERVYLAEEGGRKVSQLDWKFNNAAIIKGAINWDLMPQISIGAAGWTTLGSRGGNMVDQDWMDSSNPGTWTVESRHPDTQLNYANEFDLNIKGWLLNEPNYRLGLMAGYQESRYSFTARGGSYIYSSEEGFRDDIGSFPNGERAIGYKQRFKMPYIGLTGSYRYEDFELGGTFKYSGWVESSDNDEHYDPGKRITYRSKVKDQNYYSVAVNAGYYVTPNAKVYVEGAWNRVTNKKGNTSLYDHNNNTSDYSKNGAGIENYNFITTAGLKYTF
less than 3.0%
